Catalogue of polymerase ribozyme fitness (log ratio) values
B1: TPR 5TU (parent)
chain: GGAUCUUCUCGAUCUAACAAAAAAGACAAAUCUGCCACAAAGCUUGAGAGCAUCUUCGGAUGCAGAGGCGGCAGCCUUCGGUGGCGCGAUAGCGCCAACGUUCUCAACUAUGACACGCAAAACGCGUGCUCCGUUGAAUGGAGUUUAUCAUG

# Variants of: B1
# assay name: polymerase ribozyme fitness, log enrichment relative to wild type (log ratio); higher = more active; in vitro selection for triplet polymerase activity
Fewer inactive variants are shown than the library holds.
Write no unit; give the number alone.

Here are 8 variants together with their reported answers.
A17C A30G C95G : -3.8
A30G A41C : -3.51
C5G C14G A49G : -3.17
A115U C118A : -1.83
C54U U148C : -1.84
U53A G84A : -2.38
G81U G92C C116A G133C : -3.35
A12G G84A : -0.68

Return polymerase ribozyme fitness (log ratio) (reported value) for this variant: C72U C93U A97U A115U
-3.88

Return polymerase ribozyme fitness (log ratio) (reported value) for this variant: C95U U102G C105U
-2.98

Return polymerase ribozyme fitness (log ratio) (reported value) for this variant: A21U G58C A73G C85G
-1.7

Return polymerase ribozyme fitness (log ratio) (reported value) for this variant: A12G U53A
-0.69

Return polymerase ribozyme fitness (log ratio) (reported value) for this variant: A17G A19U
0.00969

Return polymerase ribozyme fitness (log ratio) (reported value) for this variant: U61A C69U A98U
-2.9

Return polymerase ribozyme fitness (log ratio) (reported value) for this variant: C8A G86A
-3.76

Return polymerase ribozyme fitness (log ratio) (reported value) for this variant: A39U G126C
-0.865

Return polymerase ribozyme fitness (log ratio) (reported value) for this variant: U55C A98G A113U A142G
-2.98

Return polymerase ribozyme fitness (log ratio) (reported value) for this variant: A23U A29U
-3.88

Return polymerase ribozyme fitness (log ratio) (reported value) for this variant: G34U A106G
-0.622

Return polymerase ribozyme fitness (log ratio) (reported value) for this variant: A16U C54U
-1.53

Return polymerase ribozyme fitness (log ratio) (reported value) for this variant: C99U A107G
-4.16
